Test system: CYP3A
protocolText: in vitro
runConditions: human, human liver microsomes, pH 7.4, probe testosterone (6β-hydroxylation)
endpoint: Ki at 30 min (µM)
Report the figure in µM without appending any unit label.

The reported CYP3A Ki at 30 min of CCOC(=O)C1=C(COCCN)NC(C)=C(C(=O)OC)[C@H]1c1ccccc1Cl [R-AML, R-amlodipine] is 3.9

Please examine the following record next.
The reported CYP3A Ki at 30 min of CCOC(=O)C1=C(COCCN)NC(C)=C(C(=O)OC)[C@@H]1c1ccccc1Cl [S-AML, S-amlodipine] is 2.91

====

Recorded pKi values for a group of compounds are listed next.
measuredTarget: CYP2C9 (Homo sapiens, UniProt P11712)
Construct: in keeping with results obtained using pooled human liver microsomes; tissue XenoTech (Lenexa, KS, USA); host or cells: pooled human liver microsomes
Sequence (P11712 whole entry): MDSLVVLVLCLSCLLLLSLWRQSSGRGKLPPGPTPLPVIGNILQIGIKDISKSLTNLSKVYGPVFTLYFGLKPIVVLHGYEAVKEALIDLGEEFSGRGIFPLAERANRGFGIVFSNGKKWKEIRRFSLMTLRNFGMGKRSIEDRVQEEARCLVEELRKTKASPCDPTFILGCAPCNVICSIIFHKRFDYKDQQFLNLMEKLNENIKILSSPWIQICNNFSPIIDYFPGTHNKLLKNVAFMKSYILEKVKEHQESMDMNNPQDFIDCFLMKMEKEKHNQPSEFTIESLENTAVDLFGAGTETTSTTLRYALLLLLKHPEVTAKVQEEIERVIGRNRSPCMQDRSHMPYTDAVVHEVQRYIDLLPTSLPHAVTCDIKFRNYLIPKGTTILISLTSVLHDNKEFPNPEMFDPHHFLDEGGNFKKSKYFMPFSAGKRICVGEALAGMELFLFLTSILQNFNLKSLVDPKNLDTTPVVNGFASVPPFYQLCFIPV
protocolText: Inhibition of diclofenac 4′-hydroxylation in pooled human liver microsomes
Format: biochemical
runConditions: HLM
Units for pKi: none; it is -log10 of a concentration expressed in mol/L.

Lab note: "CCOC(=O)C1=C(COCCN)NC(C)=C(C(=O)OC)[C@@H]1c1ccccc1Cl" gave pKi of 4.67

New cases:
Lab note: "CCOC(=O)C1=C(COCCN)NC(C)=C(C(=O)OC)[C@H]1c1ccccc1Cl" gave pKi of 4.92

====

# IC50 per entry for CYP2A6 (Homo sapiens)

The reported CYP2A6 (Homo sapiens) IC50 of CCOC(=O)C1=C(COCCN)NC(C)=C(C(=O)OC)[C@H]1c1ccccc1Cl [R-AML, R-amlodipine] is > 50 µM

Please examine the following record next.
The reported CYP2A6 (Homo sapiens) IC50 of CCOC(=O)C1=C(COCCN)NC(C)=C(C(=O)OC)[C@@H]1c1ccccc1Cl [S-AML, S-amlodipine] is > 50 µM

====

measuredTarget: UniProt:P20813
Sequence (P20813 1-491): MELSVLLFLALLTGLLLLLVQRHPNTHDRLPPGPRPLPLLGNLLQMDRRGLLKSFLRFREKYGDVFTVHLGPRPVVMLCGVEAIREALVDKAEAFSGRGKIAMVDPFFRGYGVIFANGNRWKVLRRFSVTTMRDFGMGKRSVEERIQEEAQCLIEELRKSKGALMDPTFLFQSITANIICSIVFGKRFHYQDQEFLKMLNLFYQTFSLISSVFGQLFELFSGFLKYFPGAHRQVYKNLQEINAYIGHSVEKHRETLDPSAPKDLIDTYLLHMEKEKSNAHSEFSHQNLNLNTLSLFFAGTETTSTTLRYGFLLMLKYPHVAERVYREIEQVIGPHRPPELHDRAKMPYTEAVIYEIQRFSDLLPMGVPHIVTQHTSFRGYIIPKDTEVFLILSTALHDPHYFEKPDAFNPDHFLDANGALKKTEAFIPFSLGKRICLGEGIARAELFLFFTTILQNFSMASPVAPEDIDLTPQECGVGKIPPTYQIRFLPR
Recorded pIC50 values for a group of molecules are listed next.
Units for pIC50: none; it is -log10 of a concentration expressed in mol/L.

Lab note: "CCOC(=O)C1=C(COCCN)NC(C)=C(C(=O)OC)[C@H]1c1ccccc1Cl" gave pIC50 of 4.38

New cases:
Lab note: "CCOC(=O)C1=C(COCCN)NC(C)=C(C(=O)OC)[C@@H]1c1ccccc1Cl" gave pIC50 of 4.40
